Kindly supply the reported pIC50 values for the records listed here.
- target.system: Kif5b-RET fusion protein in HEK-293 cells (Homo sapiens, UniProt P07949)
- Sequence (P07949 29-1114 limits assumed): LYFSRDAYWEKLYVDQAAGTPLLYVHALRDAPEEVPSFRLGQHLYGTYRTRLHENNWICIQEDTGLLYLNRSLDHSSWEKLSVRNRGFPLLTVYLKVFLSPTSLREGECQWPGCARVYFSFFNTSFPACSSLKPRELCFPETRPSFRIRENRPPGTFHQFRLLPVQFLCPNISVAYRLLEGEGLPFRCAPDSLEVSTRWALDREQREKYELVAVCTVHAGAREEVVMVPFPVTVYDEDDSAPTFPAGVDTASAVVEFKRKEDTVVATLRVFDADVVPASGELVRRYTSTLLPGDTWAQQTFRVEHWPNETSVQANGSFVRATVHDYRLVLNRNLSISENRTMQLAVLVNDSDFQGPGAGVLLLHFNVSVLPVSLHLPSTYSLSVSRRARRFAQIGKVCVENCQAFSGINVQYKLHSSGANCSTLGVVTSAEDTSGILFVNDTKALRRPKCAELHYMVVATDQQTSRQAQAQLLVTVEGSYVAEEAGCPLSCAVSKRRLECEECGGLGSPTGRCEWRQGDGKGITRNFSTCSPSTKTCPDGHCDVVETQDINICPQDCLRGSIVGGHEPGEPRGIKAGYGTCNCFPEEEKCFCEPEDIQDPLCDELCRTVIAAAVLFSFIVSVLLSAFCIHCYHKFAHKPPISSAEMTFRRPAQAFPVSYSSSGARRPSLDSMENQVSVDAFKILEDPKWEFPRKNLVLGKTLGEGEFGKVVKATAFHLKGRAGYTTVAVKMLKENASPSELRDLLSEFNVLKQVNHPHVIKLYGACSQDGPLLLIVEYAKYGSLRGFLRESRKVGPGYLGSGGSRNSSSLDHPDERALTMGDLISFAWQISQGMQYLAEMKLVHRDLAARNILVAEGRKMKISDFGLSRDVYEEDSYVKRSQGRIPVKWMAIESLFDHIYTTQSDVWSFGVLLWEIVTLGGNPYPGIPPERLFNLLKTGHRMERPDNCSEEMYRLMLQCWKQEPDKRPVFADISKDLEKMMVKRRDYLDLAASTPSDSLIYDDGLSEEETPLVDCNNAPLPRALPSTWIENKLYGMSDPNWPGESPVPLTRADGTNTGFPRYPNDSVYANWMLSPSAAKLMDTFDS
- experiment.notes: cell-based
Counter-ions that a name gives are not always drawn.
Bear in mind: pIC50 is minus log10 of a mol/L concentration; give just that figure.

INPUT: Fill in reported pIC50 for this entry: COc1ccc(CN2CCN(c3ccc(-c4cc(-c5cnn(CCOC(C)C)c5)cn5ncc(C#N)c45)cn3)CC2)cn1
OUTPUT: 8.08

INPUT: Fill in reported pIC50 for this entry: Cn1cc(-c2cc(-c3ccc(N4CCN(CCNC(=O)OC(C)(C)C)CC4)nc3)c3c(C#N)cnn3c2)cn1
OUTPUT: 8.19

INPUT: Fill in reported pIC50 for this entry: Cc1nn(C(C)C)cc1-c1cc(-c2ccc(N3CCN(Cc4ccccc4)CC3)nc2)c2c(C#N)cnn2c1
OUTPUT: 7.77

INPUT: Fill in reported pIC50 for this entry: COc1cccnc1CN1CCN(c2ccc(-c3cc(-c4cnn(C)c4)cn4ncc(C#N)c34)cn2)CC1 [Example 463, formate]
OUTPUT: 7.75

INPUT: Fill in reported pIC50 for this entry: COc1ccc(CN2CCN(c3ncc(-c4cc(-c5cnn(C)c5)cn5ncc(C#N)c45)cc3F)CC2)cn1
OUTPUT: 7.17
